- stated_conditions: in acetonitrile, 308.15 K
recorded_endpoint: solubility (mole fraction)

Measured solubility (mole fraction), `c1ccc2c(c1)OP1(=NP3(=NP4(=N1)Oc1ccccc1O4)Oc1ccccc1O3)O2` : 0.000369

----------
- stated_conditions: in dichloromethane, 303.45 K
recorded_endpoint: solubility (mole fraction)
API note: the answer field is a bare number with no unit suffix.

Measured solubility (mole fraction), `c1ccc2c(c1)OP1(=NP3(=NP4(=N1)Oc1ccccc1O4)Oc1ccccc1O3)O2` : 0.00219

----------
- stated_conditions: in toluene, 333.15 K
recorded_endpoint: solubility (mole fraction)
API note: the answer field is a bare number with no unit suffix.

Measured solubility (mole fraction), `c1ccc2c(c1)OP1(=NP3(=NP4(=N1)Oc1ccccc1O4)Oc1ccccc1O3)O2` : 0.00367

The reported measurements were obtained from BigSolDB 2.1.
